System: 64 cancer cell lines
Test summary: Anti-proliferative activity across a panel of 64 cancer cell lines (CellTiter-Glo)
Type: cell-based
Test parameters: Homo sapiens, SNU-182, 72 h, SNU-182 (Liver)
Quantity kind: pIC50
Just the number, please; pIC50 means minus log10 of the concentration in mol/L.

query: Returns the measured pIC50 for the input compound. Input: C[C@]1(C(N)=O)CC[C@@H](n2c(Nc3c(Cl)cc(Cl)cc3Cl)nc3cnc(N[C@@H]4CCOC[C@H]4F)nc32)CC1
result: 5.30

---

Test system: cancer cell lines
Test summary: Multiplexed cytotoxicity assay: cell proliferation (relative cell count IC50, GI50)
Assay type: cell-based
Test parameters: Homo sapiens, K562, K562 (Hematopoietic and lymphoid, Leukemia)
pIC50: −log10 of the molar value.
Quantity kind: pIC50

query: Returns the measured pIC50 for the input compound. Input: C[C@]1(C(N)=O)CC[C@@H](n2c(Nc3c(Cl)cc(Cl)cc3Cl)nc3cnc(N[C@@H]4CCOC[C@H]4F)nc32)CC1 [Compound 1]
result: < 5.00

---

Test system: cancer cell lines
Test summary: Multiplexed cytotoxicity assay: cell proliferation (relative cell count IC50, GI50)
Assay type: cell-based
Test parameters: Homo sapiens, BFTC-905, BFTC905 (Bladder)
Experimental: Cells are grown in RPMI1640, 10% FBS, 2 mM L-alanyl-L-Glutamine, 1 mM Na pyruvate or a special medium in a humidified atmosphere of 5% CO2 at 37° C. Cells are seeded into 384-well plates and incubated in a humidified atmosphere of 5% CO2 at 37° C. […] Apoptotic cells are detected using an anti-active caspase-3 antibody. Mitotic cells are detected using an anti phospho-histone-3 antibody. […] Sixteen-bit TIFF images are acquired and analyzed with MetaXpress 5.1.0.41 software. […]
Quantity kind: pIC50
Just the number, please; pIC50 means minus log10 of the concentration in mol/L.

query: Returns the measured pIC50 for the input molecule. Input: C[C@]1(C(N)=O)CC[C@@H](n2c(Nc3c(Cl)cc(Cl)cc3Cl)nc3cnc(N[C@@H]4CCOC[C@H]4F)nc32)CC1 [Compound 1]
result: 7.26

---

Test system: cancer cell lines
Test summary: Multiplexed cytotoxicity assay: cell proliferation (relative cell count IC50, GI50)
Format: cell-based
Test parameters: Homo sapiens, THP-1, THP1 (Hematopoietic and lymphoid, Leukemia)
Method: Cells are grown in RPMI1640, 10% FBS, 2 mM L-alanyl-L-Glutamine, 1 mM Na pyruvate or a special medium in a humidified atmosphere of 5% CO2 at 37° C. Cells are seeded into 384-well plates and incubated in a humidified atmosphere of 5% CO2 at 37° C. […] Apoptotic cells are detected using an anti-active caspase-3 antibody. Mitotic cells are detected using an anti phospho-histone-3 antibody. […] Sixteen-bit TIFF images are acquired and analyzed with MetaXpress 5.1.0.41 software. […]
Quantity kind: IC50
Respond with a number, then the unit of measure.

query: Requested read-out IC50, target or system cancer cell lines, entry C[C@]1(C(N)=O)CC[C@@H](n2c(Nc3c(Cl)cc(Cl)cc3Cl)nc3cnc(N[C@@H]4CCOC[C@H]4F)nc32)CC1 [Compound 1]
result: 49.5 nM

---

Tested on: cancer cell lines
Test summary: Multiplexed cytotoxicity assay: cell proliferation (relative cell count IC50, GI50)
Type: cell-based
Test parameters: Homo sapiens, HRT-18, HRT18 (Colon)
Quantity kind: IC50

query: Returns the measured IC50 for the input compound. Input: C[C@]1(C(N)=O)CC[C@@H](n2c(Nc3c(Cl)cc(Cl)cc3Cl)nc3cnc(N[C@@H]4CCOC[C@H]4F)nc32)CC1 [Compound 1]
result: 81.9 nM

---

Tested on: cancer cell lines
Test summary: Multiplexed cytotoxicity assay: cell proliferation (relative cell count IC50, GI50)
Format: cell-based
Test parameters: Homo sapiens, NALM-6, NALM6 (Hematopoietic and lymphoid, Leukemia)
Quantity kind: IC50

query: Returns the measured IC50 for the input compound. Input: C[C@]1(C(N)=O)CC[C@@H](n2c(Nc3c(Cl)cc(Cl)cc3Cl)nc3cnc(N[C@@H]4CCOC[C@H]4F)nc32)CC1 [Compound 1]
result: > 10 µM

---

Tested on: cancer cell lines
Test summary: Multiplexed cytotoxicity assay: cell proliferation (relative cell count IC50, GI50)
Type: cell-based
Test parameters: Homo sapiens, CFPAC-1, 72 h, CFPAC1, Pancreas; 72 h
pIC50: −log10 of the molar value.
Quantity kind: pIC50

query: Returns the measured pIC50 for the input compound. Input: C[C@]1(C(N)=O)CC[C@@H](n2c(Nc3c(Cl)cc(Cl)cc3Cl)nc3cnc(N[C@@H]4CCOC[C@H]4F)nc32)CC1 [Compound 1]
result: < 5.00

---

Tested on: HCC cell lines
Test summary: HCC cell line proliferation (CellTiter-Glo)
Assay type: cell-based
Test parameters: 72 h, JHH-6, 72 h, CellTiter-Glo
pIC50: −log10 of the molar value.
Quantity kind: pIC50

query: Returns the measured pIC50 for the input compound. Input: C[C@]1(C(N)=O)CC[C@@H](n2c(Nc3c(Cl)cc(Cl)cc3Cl)nc3cnc(N[C@@H]4CCOC[C@H]4F)nc32)CC1
result: ≤ 5.00

---

Test system: cancer cell lines
Test summary: Multiplexed cytotoxicity assay: cell proliferation (relative cell count IC50, GI50)
Assay type: cell-based
Test parameters: Homo sapiens, U2OS, 72 h, Soft Tissue, Osteosarcoma
Protocol: Cells are grown in RPMI1640, 10% FBS, 2 mM L-alanyl-L-Glutamine, 1 mM Na pyruvate or a special medium in a humidified atmosphere of 5% CO2 at 37° C. Cells are seeded into 384-well plates and incubated in a humidified atmosphere of 5% CO2 at 37° C. […] Apoptotic cells are detected using an anti-active caspase-3 antibody. Mitotic cells are detected using an anti phospho-histone-3 antibody. […] Sixteen-bit TIFF images are acquired and analyzed with MetaXpress 5.1.0.41 software. […]
Quantity kind: pIC50
Just the number, please; pIC50 means minus log10 of the concentration in mol/L.

query: Returns the measured pIC50 for the input molecule. Input: C[C@]1(C(N)=O)CC[C@@H](n2c(Nc3c(Cl)cc(Cl)cc3Cl)nc3cnc(N[C@@H]4CCOC[C@H]4F)nc32)CC1
result: 6.43

---

Test system: cancer cell lines
Test summary: Multiplexed cytotoxicity assay: cell proliferation (relative cell count IC50, GI50)
Assay type: cell-based
Test parameters: Homo sapiens, SK-MES-1, 72 h, SKMES1, Lung, NSCLC; 72 h
Quantity kind: IC50 (µM)
Please give a number only; it is taken to be in µM.

query: Returns the measured IC50 for the input compound. Input: C[C@]1(C(N)=O)CC[C@@H](n2c(Nc3c(Cl)cc(Cl)cc3Cl)nc3cnc(N[C@@H]4CCOC[C@H]4F)nc32)CC1
result: 0.122

---

Test system: cancer cell lines
Test summary: Multiplexed cytotoxicity assay: cell proliferation (relative cell count IC50, GI50)
Type: cell-based
Test parameters: Homo sapiens, BeWo, 72 h, Female GU, Placenta
Quantity kind: IC50 (µM)
Please give a number only; it is taken to be in µM.

query: Returns the measured IC50 for the input molecule. Input: C[C@]1(C(N)=O)CC[C@@H](n2c(Nc3c(Cl)cc(Cl)cc3Cl)nc3cnc(N[C@@H]4CCOC[C@H]4F)nc32)CC1 [Compound 1]
result: 5.69

---

System: cancer cell lines
Test summary: Multiplexed cytotoxicity assay: cell proliferation (relative cell count IC50, GI50)
Format: cell-based
Test parameters: HS852T (Skin, Melanoma)
Quantity kind: pIC50
Just the number, please; pIC50 means minus log10 of the concentration in mol/L.

query: Requested read-out pIC50, target or system cancer cell lines, entry C[C@]1(C(N)=O)CC[C@@H](n2c(Nc3c(Cl)cc(Cl)cc3Cl)nc3cnc(N[C@@H]4CCOC[C@H]4F)nc32)CC1 [Compound 1]
result: 6.15

---

Tested on: BRAF mutant and beta-catenin mutant or active cancer cell lines
Test summary: Anti-proliferative and apoptotic activity in BRAF mutant and beta-catenin mutant or active cancer cell lines
Type: cell-based
Test parameters: Homo sapiens; Colo 205, CRC, BRAF (V600E); read-out: Proliferation IC50
Method: Anti-proliferative and apoptotic activity in BRAF mutant and beta-catenin mutant or active cancer cell lines. The mutation status of BRAF, CTNNB1, KRAS, and EGFR in five cell lines evaluated was based on public data (COSMIC and CCLE) and confirmed internally. β-catenin status was evaluated using TOP Flash reporter system by transient transfection. […] Antiproliferative and apoptotic activity of Compound 1 in the five cell lines were measured as described above.
Quantity kind: IC50 (nM)
Please give a number only; it is taken to be in nM.

query: Requested read-out IC50, target or system BRAF mutant and beta-catenin mutant or active cancer cell lines, entry C[C@]1(C(N)=O)CC[C@@H](n2c(Nc3c(Cl)cc(Cl)cc3Cl)nc3cnc(N[C@@H]4CCOC[C@H]4F)nc32)CC1
result: 36

---

Tested on: cancer cell lines
Test summary: Multiplexed cytotoxicity assay: cell proliferation (relative cell count IC50, GI50)
Format: cell-based
Test parameters: Homo sapiens, MC-IXC, 72 h, MCIXC, CNS, Neuroblastoma
Protocol: Cells are grown in RPMI1640, 10% FBS, 2 mM L-alanyl-L-Glutamine, 1 mM Na pyruvate or a special medium in a humidified atmosphere of 5% CO2 at 37° C. Cells are seeded into 384-well plates and incubated in a humidified atmosphere of 5% CO2 at 37° C. […] Apoptotic cells are detected using an anti-active caspase-3 antibody. Mitotic cells are detected using an anti phospho-histone-3 antibody. […] Sixteen-bit TIFF images are acquired and analyzed with MetaXpress 5.1.0.41 software. […]
Quantity kind: IC50
Respond with a number, then the unit of measure.

query: Returns the measured IC50 for the input compound. Input: C[C@]1(C(N)=O)CC[C@@H](n2c(Nc3c(Cl)cc(Cl)cc3Cl)nc3cnc(N[C@@H]4CCOC[C@H]4F)nc32)CC1 [Compound 1]
result: 2.33 µM
